Field: pKd. Provide a value for each of the compounds that follow.
TESTED_TARGET: truncated LDHB (LDHBtr) (Homo sapiens)
Sequence (P07195 21-334): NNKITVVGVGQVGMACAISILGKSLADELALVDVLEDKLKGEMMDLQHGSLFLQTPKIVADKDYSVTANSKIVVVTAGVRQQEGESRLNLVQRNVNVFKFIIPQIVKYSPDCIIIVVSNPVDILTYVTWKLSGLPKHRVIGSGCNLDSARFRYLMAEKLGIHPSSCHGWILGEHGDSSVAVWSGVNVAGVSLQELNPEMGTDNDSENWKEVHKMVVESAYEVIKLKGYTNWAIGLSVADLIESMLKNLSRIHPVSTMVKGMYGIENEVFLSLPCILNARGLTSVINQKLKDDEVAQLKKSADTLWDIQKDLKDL
TEST_DESCRIPTION: Microscale thermophoresis (MST), Example 2, macrocycles against truncated LDHB
EXPERIMENTAL_CONDITIONS: MST traces at 10 s to 20 s on time
*1 amine or outer side, *2 acyl side, *3 side chain or, on linkers, in order; H or OH if unused. Where a SMILES comes first, the peptide text is derived from it. Bridges are numbered along the chain shown (N, C = ends). C6F4(1,4-diyl) = Fc1c(F)c([*:2])c(F)c(F)c1[*:1]; oXylylene = c1ccc(C[*:2])c(C[*:1])c1; pXylylene = c1cc(C[*:2])ccc1C[*:1]
Just so you know, pKd here is -log10 of the concentration in molar units; reply with that number alone.

Query string: # lookup: pKd of CC[C@H](C)[C@H](NC(=O)[C@H](CC(C)C)NC(=O)[C@H](CCCCN)NC(=O)[C@@H]1CSc2c(F)c(F)c(c(F)c2F)SC[C@H](N)C(=O)N[C@@H]([C@@H](C)O)C(=O)N[C@@H](CC(C)C)C(=O)N[C@@H](CCCCN)C(=O)N1)C(N)=O [MP7, CTLKCKLI] (H-CTLKCKLI-NH2; linker 1-5 via C6F4(1,4-diyl); N-terminus assumed)
Result string: 4.96

Query string: Which pKd is listed for CC[C@H](C)[C@H](NC(=O)[C@H](CC(C)C)NC(=O)[C@H](CCCCN)NC(=O)[C@@H]1CCC(=O)N[C@@H](C)C(=O)N[C@@H]([C@@H](C)O)C(=O)N[C@@H](CC(C)C)C(=O)N[C@@H](CCCCN)C(=O)N1)C(N)=O [MP11, ATLKEKLI] (ATLKEKLI-NH2; lactam N-5) ?
Result string: 3.33

Query string: Name the recorded pKd for CC[C@H](C)[C@H](NC(=O)[C@H](CC(C)C)NC(=O)[C@H](CCCCN)NC(=O)[C@@H]1CC(=O)NCCCC[C@H](NC(C)=O)C(=O)N[C@@H]([C@@H](C)O)C(=O)N[C@@H](CC(C)C)C(=O)N[C@@H](CCCCN)C(=O)N1)C(N)=O [MP10, Ac-KTLKDKLI] (Ac-KTLKDKLI-NH2; lactam 1-5) .
Result string: 3.85

Query string: What value of pKd has been recorded for this entry: CC[C@H](C)[C@H](NC(=O)[C@H](CC(C)C)NC(=O)[C@H](CCCCN)NC(=O)[C@@H]1CSCc2ccccc2CSC[C@H](N)C(=O)N[C@@H]([C@@H](C)O)C(=O)N[C@@H](CC(C)C)C(=O)N[C@@H](CCCCN)C(=O)N1)C(N)=O [MP8, CTLKCKLI] (H-CTLKCKLI-NH2; linker 1-5 via oXylylene; N-terminus assumed)
Result string: 4.60

Query string: Form field: reported pKd of CC[C@H](C)[C@H](NC(=O)[C@H](CC(C)C)NC(=O)[C@H](CCCCN)NC(=O)[C@@H]1CSCc2ccc(cc2)CSC[C@H](N)C(=O)N[C@@H]([C@@H](C)O)C(=O)N[C@@H](CC(C)C)C(=O)N[C@@H](CCCCN)C(=O)N1)C(N)=O [MP9, CTLKCKLI] (H-CTLKCKLI-NH2; linker 1-5 via pXylylene; N-terminus assumed)
Result string: 3.95

---

TESTED_TARGET: LDHBtr (Homo sapiens)
TEST_DESCRIPTION: NMR WaterLOGSY binding screening
EXPERIMENTAL_CONDITIONS: linear peptides at 800 μM, LDHBtr 15 μM
Where no end group is shown, it is not given here.
MEASURE_NAME: Binding using WaterLOGSY (800 μM)

Query string: What reported Binding using WaterLOGSY (800 μM) corresponds to Ac-LIAPVAE-NH2 [LBc, LB19 central fragment evaluated as a negative control, reference compound] on LDHBtr (Homo sapiens)?
Result string: − (non-binders)

Query string: Given the entry ATLAEALI (LB8-A3-A5) [LB8 structural analogue] , what Binding using WaterLOGSY (800 μM) was observed with LDHBtr (Homo sapiens)?
Result string: + (binders)

Query string: Can you look up Binding using WaterLOGSY (800 μM) on LDHBtr (Homo sapiens) for ATLKDQLI [LA8, linear polypeptide] ?
Result string: + (binders)

Query string: Provide value of Binding using WaterLOGSY (800 μM) for this record tested with LDHBtr (Homo sapiens): ATLKAKLI (LB8-A4) [LB8 structural analogue]
Result string: + (binders)

Query string: Record ATLKEKLA (LB8-A7) [LB8 structural analogue] : what is its Binding using WaterLOGSY (800 μM) with LDHBtr (Homo sapiens)?
Result string: + (binders)

Query string: Give LDHBtr (Homo sapiens) Binding using WaterLOGSY (800 μM) for Ac-ATLKEKLI [Ac-LB8, LB8 structural analogue]
Result string: + (binders)

Query string: Give recorded Binding using WaterLOGSY (800 μM) with LDHBtr (Homo sapiens) for the following substance: ATLKEKL (LB8-AL7) [LB8 structural analogue]
Result string: − (non-binders)

Query string: Could you share what Binding using WaterLOGSY (800 μM) was measured for ATLKEKLG (LB8-G8) [LB8 structural analogue] , tested on LDHBtr (Homo sapiens)?
Result string: + (binders)

***
Query string: Identify the measured Binding using WaterLOGSY (800 μM) of TLKEKLI (LB8-TI7) [LB8-T17, LB8 structural analogue] for LDHBtr (Homo sapiens).
Result string: − (non-binders)

Query string: Any idea what Binding using WaterLOGSY (800 μM) came out for GTLKEKLI (LB8-G1) [LB8 structural analogue] on LDHBtr (Homo sapiens)?
Result string: + (binders)

---

TESTED_TARGET: LDHBtr (Homo sapiens, UniProt P07195)
Sequence (P07195 21-334): as above
TEST_DESCRIPTION: NMR WaterLOGSY binding screening
EXPERIMENTAL_CONDITIONS: linear peptides at 800 μM, LDHBtr 15 μM
Where no end group is shown, it is not given here.
MEASURE_NAME: Binding using WaterLOGSY (800 μM)

Below, each entry is followed by its recorded Binding using WaterLOGSY (800 μM) result.
Query string: Which Binding using WaterLOGSY (800 μM) is reported with LDHBtr (Homo sapiens, UniProt P07195) for this entry: Ac-TLKEKLI [LB8-AcTI7, LB8 structural analogue] ?
Result string: − (non-binders)

Query string: Field: Binding using WaterLOGSY (800 μM) (LDHBtr (Homo sapiens, UniProt P07195)). Entry: ATLKEALI (LB8-A5) [LB8 structural analogue]
Result string: + (binders)

Query string: What value of Binding using WaterLOGSY (800 μM) on LDHBtr (Homo sapiens, UniProt P07195) does ATAKEKLI (LB8-A2) [LB8 structural analogue] have?
Result string: + (binders)

Query string: Give recorded Binding using WaterLOGSY (800 μM) with LDHBtr (Homo sapiens, UniProt P07195) for the following substance: ATLKDQLIYNLLKEEQTPQ (LA19) [linear polypeptide]
Result string: + (binders)

Query string: API: value(readout= Binding using WaterLOGSY (800 μM), system= LDHBtr (Homo sapiens, UniProt P07195), query= ATLAEKLI (LB8-A3) [LB8 structural analogue] )
Result string: + (binders)

Could you now consider this next substance?
Query string: Under LDHBtr (Homo sapiens, UniProt P07195): Binding using WaterLOGSY (800 μM) value of AALKEKLI [LB8-A1, LB8 structural analogue] ?
Result string: − (non-binders)

Ref: patent US20220289791A1
